Values from PubChem BioAssay (NCI)

- System: HCT-15 colon
- procedure summary: NCI tumour cell line growth inhibition, 48 h
quantity kind: TGI

- compound: "CCN1C(=O)N(CC)C2C1NN=c1s/c(=C\\c3ccccc3Br)c(=O)n12 (centres undefined)"
  readout value: "12.6 µM"
- compound: "CCN(Cc1ccc(Cl)s1)c1ccc(CO)c(Cl)c1"
  readout value: "> 50.6 µM"
- compound: "C[C@@H]1O[C@@H](OC[C@H]2O[C@@H](OCCc3ccc(O)c(O)c3)[C@H](O)[C@@H](O)[C@@H]2OC(=O)/C=C/c2ccc(O)c(O)c2)[C@H](O)[C@H](O)[C@H]1O"
  readout value: "> 100 µM"
- compound: "CC1OC(OC2C(OC(=O)[C@@H]3CC(C)(C)C[C@H]4C5=CC[C@@H]6[C@@]7(C)C[C@H](O)[C@H](OC8OC(CO)C(O)C(O)C8O)[C@@](C)(CO)[C@@H]7[C@H](O)C[C@@]6(C)[C@]5(C)CC[C@@]34C)OCC(O)C2O)C(O)C(O)C1O (some centres undefined)"
  readout value: "> 7.5 µM"
- compound: "COc1cc(/C=C(/C#N)C(N)=O)ccc1O"
  readout value: "> 100 µM"
- compound: "COc1ccc(OC)c(Cn2cc3c(c2)-c2oncc2CC3)c1"
  readout value: "> 100 µM"
- compound: "COC(CN1C=C(Sc2ccccc2)CC1)OC"
  readout value: "> 100 µM"
- compound: "CN(C)c1ccc(N=Nc2ccncc2)cc1"
  readout value: "> 100 µM"
- compound: "O=C(N/N=C/c1cc(Cl)cc(Cl)c1O)c1ccccc1O"
  readout value: "15.7 µM"
